- Tested on: UACC-257 melanoma
- TEST METHOD NOTES: NCI tumour cell line growth inhibition, 48 h

{"columns": ["MOLECULE", "TGI"],
 "data": [
  ["N#CSCC(Cl)=CCl (mixture of isomers)", "> 100 µM"],
  ["CCC[CH2][Sn]([CH2]CCC)([O]C(=O)CN)[O]C(=O)CN", "> 100 µM"],
  ["O=C1C2=Cc3ccccc3OC2(O)Oc2cc3ccccc3cc21 (stereo not drawn)", "> 100 µM"]
]}

###

- Tested on: M14 melanoma
- TEST METHOD NOTES: NCI tumour cell line growth inhibition, 48 h

{"columns": ["MOLECULE", "TGI"],
 "data": [
  ["CCOC(=O)CCC(NC(=O)c1ccc(Nc2nc3ccc(C(F)(F)F)cc3nc2-c2ccccc2)cc1)C(=O)OCC (configuration not stated)", "46.2 µM"],
  ["N#Cc1ccc(-c2nc3c(N)ncnc3o2)cc1", "> 100 µM"],
  ["CC[C@@H](C)[C@H](NC(=O)[C@H](Cc1ccccc1)NCC(F)(F)F)C(=O)OC(C)(C)C", "> 100 µM"],
  ["C=C(C)C1CCC(C(=O)O)CC1 (configuration not stated)", "> 100 µM"],
  ["CCCCCCCCCCCC(=O)OCCOCCOCCOCCOCCOC(=O)CCCCCCCCCCC", "> 100 µM"],
  ["Cc1cc(N(CC(C)Br)CC(C)Br)ccc1N=Nc1ccccc1C(=O)O (configuration not stated)", "20.1 µM"],
  ["CC1(c2cccc(C3CC4(CCC3=O)OCCCCO4)c2)OCCO1 (configuration not stated)", "> 100 µM"]
]}

###

- Tested on: NCI-H226 lung
- TEST METHOD NOTES: NCI tumour cell line growth inhibition, 48 h
ASSAY ENDPOINT: TGI (µM)

{"columns": ["MOLECULE", "REL", "VALUE OBSERVED"],
 "data": [
  ["C#CCn1c(=O)c(I)cn(/C(=C/C(=O)OCC)C(=O)OCC)c1=O", "=", 47.7],
  ["C=CCCON(C(=O)OC(C)(C)C)c1ccccc1", ">", 100],
  ["COc1ccc2nc3cc(Cl)ccc3c(Sc3ccc([N+](=O)[O-])cc3C)c2c1", ">", 100],
  ["O=c1[nH]c2ccccc2cc1-c1nc2ccc(Cl)cc2[nH]1", ">", 100],
  ["COc1cc(NCC(C#N)C#N)ccc1N=Nc1ccc(Cl)cc1", ">", 100],
  ["COC(=O)C(=O)CC(=O)CCn1[nH]c(=O)c(Cl)c(Cl)c1=O", ">", 100],
  ["COc1cc(Nc2ncccc2C(=O)Nc2nc3ccc(F)cc3s2)cc(OC)c1OC", ">", 100],
  ["Nc1n[nH]c2cccc(C#Cc3cccc(NC(=O)c4cccc(C(F)(F)F)c4)c3)c12", "=", 20.3],
  ["CCOC(=O)c1ccc(N=C/C=C(\\Nc2ccc(C(=O)OCC)cc2)C23CC4CC(CC(C4)C2)C3)cc1", ">", 100],
  ["CCOC(=O)c1sc(=S)n(-c2ccc(Cl)cc2)c1-n1cc(-c2ccccc2)c(C#N)c1N", "=", 43.5],
  ["Cc1ccc(-n2[nH]nc(C(N)=O)c2=O)cc1", ">", 100],
  ["COc1cc(C2c3cc4c(cc3OC(C)(N3CCCC3)C2C)OCO4)cc(OC)c1OC (centres undefined)", "=", 2.05],
  ["S=C(N/N=C/c1ccccn1)N1CCCCC1", "=", 6.97],
  ["C=C(C)C1CC2(C)C(C)CC(O)CC2C(OC(=O)C=C(C)C)C1O (centres undefined)", "=", 46.2]
]}
